- Organism: Rattus norvegicus
- measurementDescription: Open TG-GATES - Regimen: Daily Repeat
- Assay type: toxicity, organism-based, Sprague-Dawley
- Parameters: regimen Daily Repeat, gender Male, age 6 weeks
- appliedConditions: in vivo, po, 1000 mg/kg, […], tissue Blood, route gavage, dose level High, time 28 day
# Eos per entry
metricName: Eos (%)

> print(dat)
                                   compound  reportedresult
1                            O=C(O)c1cccnc1               1
2  CCN1CCCC1CNC(=O)c1cc(S(N)(=O)=O)ccc1OC (centres undefined) [SULPIRIDE]             1.6
3                   CC(C)(S)[C@@H](N)C(=O)O             1.8
4  O=C(N[C@H](CO)[C@H](O)c1ccc([N+](=O)[O-])cc1)C(Cl)Cl             1.2

---

- Species on record: Rattus norvegicus
- measurementDescription: Open TG-GATES - Regimen: Single
- Format: toxicity, organism-based, Sprague-Dawley
- Design: regimen Single, gender Male, age 6 weeks
- appliedConditions: in vivo, po, 0 mg/kg, 9 h, tissue Plasma, route gavage, dose level Control
# TBIL per entry
metricName: TBIL (mg/dL)

> print(dat)
                                   compound  reportedresult
1  CCN1CCCC1CNC(=O)c1cc(S(N)(=O)=O)ccc1OC (stereo unspecified) [SULPIRIDE]           0.074
2  CC(C)C(=O)Nc1ccc([N+](=O)[O-])c(C(F)(F)F)c1 [FLUTAMIDE]             0.1
3  O=C(N[C@H](CO)[C@H](O)c1ccc([N+](=O)[O-])cc1)C(Cl)Cl [CHLORAMPHENICOL]           0.068
4      CN1C(=O)OC(C)(C)C1=O [TRIMETHADIONE]           0.064
5                   O=C(O)c1cccnc1 [NIACIN]            0.01
6                   CC(=N)S [THIOACETAMIDE]             0.4

---

- Species: Rattus norvegicus
- measurementDescription: Open TG-GATES - Regimen: Daily Repeat
- Format: toxicity, organism-based, Sprague-Dawley
- Parameters: regimen Daily Repeat, gender Male, age 6 weeks
- appliedConditions: in vivo, po, 1000 mg/kg, […], tissue Blood, route gavage, dose level High, time 14 day
metricName: Fbg (mg/dL)

> print(dat)
                                   compound  metricname  reportedresult
1                   CC(C)(S)[C@@H](N)C(=O)O         Fbg           520.8
2  CCN1CCCC1CNC(=O)c1cc(S(N)(=O)=O)ccc1OC (centres undefined) [SULPIRIDE]         Fbg             271
3                            O=C(O)c1cccnc1         Fbg           295.4
4  O=C(N[C@H](CO)[C@H](O)c1ccc([N+](=O)[O-])cc1)C(Cl)Cl         Fbg           325.6
